target: TNKS1 (Homo sapiens); test: Modified TNKS1 Assay 3 (BPS kit #80573, biotin-NAD+, 96 well); assay type: biochemical; details: human TNKS1, BPS kit #80573, 96 well
Sequence (O95271 whole entry): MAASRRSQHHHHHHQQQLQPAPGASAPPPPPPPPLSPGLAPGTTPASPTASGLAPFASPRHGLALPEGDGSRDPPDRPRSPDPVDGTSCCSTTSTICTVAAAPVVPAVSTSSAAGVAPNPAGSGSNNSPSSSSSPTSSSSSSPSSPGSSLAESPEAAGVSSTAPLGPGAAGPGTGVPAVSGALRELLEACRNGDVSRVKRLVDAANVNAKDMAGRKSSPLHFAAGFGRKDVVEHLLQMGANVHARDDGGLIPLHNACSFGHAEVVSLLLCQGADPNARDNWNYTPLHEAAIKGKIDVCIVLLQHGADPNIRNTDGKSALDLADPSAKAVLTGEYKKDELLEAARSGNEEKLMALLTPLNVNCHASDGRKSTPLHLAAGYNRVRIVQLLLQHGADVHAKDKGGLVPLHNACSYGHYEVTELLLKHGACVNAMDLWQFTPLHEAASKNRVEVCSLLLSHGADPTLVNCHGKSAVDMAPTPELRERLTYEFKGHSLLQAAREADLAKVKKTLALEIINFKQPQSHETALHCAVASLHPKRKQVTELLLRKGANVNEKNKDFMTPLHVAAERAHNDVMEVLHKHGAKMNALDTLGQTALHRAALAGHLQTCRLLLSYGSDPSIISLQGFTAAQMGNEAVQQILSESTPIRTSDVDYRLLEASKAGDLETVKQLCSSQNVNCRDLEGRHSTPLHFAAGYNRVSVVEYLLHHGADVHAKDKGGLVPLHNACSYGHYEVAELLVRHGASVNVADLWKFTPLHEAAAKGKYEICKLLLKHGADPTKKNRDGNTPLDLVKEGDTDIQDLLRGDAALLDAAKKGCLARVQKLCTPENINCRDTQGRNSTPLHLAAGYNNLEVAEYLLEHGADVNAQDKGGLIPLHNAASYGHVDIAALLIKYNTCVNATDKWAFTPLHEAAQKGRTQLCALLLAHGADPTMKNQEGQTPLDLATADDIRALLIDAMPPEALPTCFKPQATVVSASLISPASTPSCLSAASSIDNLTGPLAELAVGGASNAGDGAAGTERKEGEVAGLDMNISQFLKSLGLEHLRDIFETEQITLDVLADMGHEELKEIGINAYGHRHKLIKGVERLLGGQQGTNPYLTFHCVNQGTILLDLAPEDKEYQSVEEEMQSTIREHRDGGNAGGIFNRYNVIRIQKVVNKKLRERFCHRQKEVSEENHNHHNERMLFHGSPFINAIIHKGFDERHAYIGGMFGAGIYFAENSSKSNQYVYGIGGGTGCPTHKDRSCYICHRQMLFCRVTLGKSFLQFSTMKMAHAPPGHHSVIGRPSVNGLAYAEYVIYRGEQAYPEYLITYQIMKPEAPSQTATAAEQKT
pIC50: −log10 of the molar value.
measurement_label: pIC50

(I) C[C@@H]1CCCCN1CCNC(=O)c1[nH]cnc1C(=O)Nc1ccc(NC(=O)c2ccc(F)cc2Cl)cc1
(II) O=C(Nc1ccc(NC(=O)c2nc[nH]c2C(=O)NCC(F)F)cc1)c1ccc(F)cc1Cl
Query: Given the listed records, identify the one among I and II with higher pIC50. Field: selected label. Fill in the label of the entry you choose.
Result: I

---

Overview of reported pIC50 across a group of compounds:
test system: HEK293 FOP control reporter cell line; experiment: HEK293 FOP Assay (FOP control vector luciferase reporter); type: cell-based; conditions: Homo sapiens; HEK293 FOP control reporter cells, 16 hours, luciferase; dilution series from 50 μM
pIC50: −log10 of the molar value.

Study these solved cases before continuing.
| entry_smiles | pIC50 |
| --- | --- |
| CNC(=O)c1nc[nH]c1C(=O)Nc1ccc(NC(=O)c2ccc(F)cc2Cl)nc1 | ≤ 4.30 |
| CN(C)C(=O)c1nc[nH]c1C(=O)Nc1ccc(NC(=O)c2ccc(F)cc2Cl)cc1 | ≤ 4.30 |
| O=C(Nc1ccc(NC(=O)c2[nH]cnc2C(=O)N2CC3(COC3)C2)cc1)c1ccc(F)cc1 | ≤ 4.30 |
| CNC(=O)c1nc[nH]c1C(=O)Nc1ccc(NC(=O)c2c(C)cc(F)cc2C)cc1 | ≤ 4.30 |
| CN(C)CCNC(=O)c1ncoc1C(=O)Nc1ccc(NC(=O)c2ccc(F)cc2Cl)cc1 | ≤ 4.30 |
| O=C(Nc1ccc(NC(=O)c2[nH]cnc2C(=O)N2CCOCC2)cc1)c1ccc(F)cc1Cl | ≤ 4.30 |
| CNC(=O)c1nc[nH]c1C(=O)Nc1ccc(NC(=O)c2cccnc2Cl)cc1 | ≤ 4.30 |
| CNC(=O)c1nc[nH]c1C(=O)Nc1ccc(NC(=O)c2ccc(N3CCCC3)cc2F)cc1 | ≤ 4.30 |
| CNC(=O)c1nc[nH]c1C(=O)Nc1ccc(NC(=O)c2ccccc2Cl)cc1 | ≤ 4.30 |
| CNC(=O)c1nc[nH]c1C(=O)Nc1ccc(NC(=O)c2ccc(OCCN(C)C)cc2Cl)cc1 | 4.47 |

Query: Name the recorded pIC50 for `CNC(=O)c1nc[nH]c1C(=O)Nc1ccc(NC(=O)c2ccc(F)cc2)cc1` .
Result: 4.51

Query: Input `CNC(=O)c1nc[nH]c1C(=O)Nc1ccc(NC(=O)c2ccccc2Br)cc1`
Result: 4.70

Query: Input `CNC(=O)c1nc[nH]c1C(=O)Nc1ccc(NC(=O)c2ccccc2)cc1`
Result: 4.46

Query: Input `O=C(Nc1ccc(NC(=O)c2[nH]cnc2C(=O)NCC(F)(F)F)cc1)c1ccc(F)cc1Cl`
Result: 4.43

Query: Input `CC(C)NC(=O)c1nc[nH]c1C(=O)Nc1ccc(NC(=O)c2ccc(F)cc2Cl)cc1`
Result: ≤ 4.30

Query: Input `CNC(=O)c1nc[nH]c1C(=O)Nc1ccc(NC(=O)c2ccc(OC)c(OC)c2OC)cc1`
Result: ≤ 4.30

Query: Input `O=C(Nc1ccc(NC(=O)c2[nH]cnc2C(=O)NCCN2CCCCC2)cc1)c1ccc(F)cc1`
Result: ≤ 4.30
